B1: MCOLN1 (parent)
chain: EEEDLRRRLKYFFMSPCDKFRAKG

Variants of: B1
method description: protein stability index of a GFP-peptide fusion (GPS, HEK-293T) (PSI 1-6); higher = more stable;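 also: lentivirally expressed fusions sorted by FACS into six bins by GFP to DsRed ratio, PSI derived from sequencing read proportions per bin multiplied by bin number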
setup conditions: c terminus: a fixed tail appended
Class 1: protein stability index at least 3. Class -1: protein stability index below 3.

variant_designation=G24L qualitative_label=-1
variant_designation=G24C qualitative_label=-1
variant_designation=E2H qualitative_label=-1
variant_designation=R6N qualitative_label=1
variant_designation=L5T qualitative_label=1
variant_designation=A22N qualitative_label=-1
variant_designation=P16C qualitative_label=-1
variant_designation=R6Y qualitative_label=-1
variant_designation=R8P qualitative_label=1
variant_designation=P16Q qualitative_label=-1
variant_designation=G24P qualitative_label=-1
variant_designation=A22F qualitative_label=-1
variant_designation=K10G qualitative_label=-1
variant_designation=L5M qualitative_label=-1
variant_designation=A22D qualitative_label=-1
variant_designation=G24N qualitative_label=-1
variant_designation=M14R qualitative_label=-1
variant_designation=M14E qualitative_label=-1
variant_designation=M14P qualitative_label=1
variant_designation=S15N qualitative_label=-1
variant_designation=K23C qualitative_label=-1
variant_designation=F13A qualitative_label=1
variant_designation=E1Q qualitative_label=-1
variant_designation=K10F qualitative_label=-1
variant_designation=F12C qualitative_label=1
variant_designation=C17F qualitative_label=-1
variant_designation=F12S qualitative_label=1
variant_designation=F12N qualitative_label=1
variant_designation=D18Y qualitative_label=-1
variant_designation=S15Y qualitative_label=-1
variant_designation=F12W qualitative_label=-1
variant_designation=K10I qualitative_label=-1
variant_designation=A22L qualitative_label=-1
variant_designation=D4I qualitative_label=-1
variant_designation=A22I qualitative_label=-1
variant_designation=E3W qualitative_label=-1
variant_designation=K23G qualitative_label=-1
variant_designation=F20N qualitative_label=1
variant_designation=P16G qualitative_label=-1
variant_designation=D18A qualitative_label=-1
variant_designation=R21H qualitative_label=1
variant_designation=E3V qualitative_label=-1
variant_designation=F13D qualitative_label=1
variant_designation=R7W qualitative_label=-1
